test: Volume of distribution in mouse at 10 mg/kg, iv; type: ADME, organism-based; details: in vivo
measured quantity: Vd (L/kg)
Numbers only, in L/kg.

Lab note: measured Vd of C[C@]12CCC(=O)C[C@H]1C[C@@H](N1CCC[C@@H](N)C1)[C@@H]2Oc1ccc(C#N)cc1 was 24

###

target: Voltage-gated inwardly rectifying potassium channel KCNH2 (Homo sapiens); assay: Inhibition of human ERG expressed in CHOK1 cells at holding potential of -80 mV after 5 mins by patch clamp assay
Sequence (Q12809 whole entry): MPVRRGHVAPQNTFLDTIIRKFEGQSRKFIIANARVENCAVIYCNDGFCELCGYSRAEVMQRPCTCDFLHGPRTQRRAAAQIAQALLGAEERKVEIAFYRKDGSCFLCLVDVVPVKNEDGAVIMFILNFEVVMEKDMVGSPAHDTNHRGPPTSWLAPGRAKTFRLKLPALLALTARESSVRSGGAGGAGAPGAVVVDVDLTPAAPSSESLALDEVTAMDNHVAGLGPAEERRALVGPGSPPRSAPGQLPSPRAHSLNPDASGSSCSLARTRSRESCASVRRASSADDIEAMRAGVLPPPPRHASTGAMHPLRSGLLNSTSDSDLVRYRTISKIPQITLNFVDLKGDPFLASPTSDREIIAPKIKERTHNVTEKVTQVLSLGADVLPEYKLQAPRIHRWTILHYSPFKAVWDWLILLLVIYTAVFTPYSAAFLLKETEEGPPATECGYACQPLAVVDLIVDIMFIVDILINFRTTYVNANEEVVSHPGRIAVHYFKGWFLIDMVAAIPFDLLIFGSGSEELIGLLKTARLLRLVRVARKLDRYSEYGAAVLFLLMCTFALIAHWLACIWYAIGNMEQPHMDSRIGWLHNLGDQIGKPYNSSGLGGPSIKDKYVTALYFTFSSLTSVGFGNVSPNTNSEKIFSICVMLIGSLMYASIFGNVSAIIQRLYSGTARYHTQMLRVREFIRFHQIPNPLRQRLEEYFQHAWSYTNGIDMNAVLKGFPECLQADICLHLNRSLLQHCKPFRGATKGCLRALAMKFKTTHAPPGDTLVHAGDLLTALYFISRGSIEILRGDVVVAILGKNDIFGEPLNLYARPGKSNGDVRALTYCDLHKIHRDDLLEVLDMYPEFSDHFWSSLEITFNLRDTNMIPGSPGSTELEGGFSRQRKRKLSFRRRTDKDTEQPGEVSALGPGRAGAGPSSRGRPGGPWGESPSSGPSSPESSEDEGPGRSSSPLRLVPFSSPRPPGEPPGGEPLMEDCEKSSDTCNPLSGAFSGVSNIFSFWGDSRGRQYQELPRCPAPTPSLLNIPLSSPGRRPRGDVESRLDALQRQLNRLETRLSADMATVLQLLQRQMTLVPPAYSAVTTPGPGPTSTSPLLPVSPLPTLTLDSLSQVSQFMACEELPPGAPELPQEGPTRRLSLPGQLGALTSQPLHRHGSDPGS
measured quantity: IC50

Use these answered entries as a reference point.
compound	IC50
CC1(O)CC[C@@]2(C)[C@H](C[C@@H](N3CCC[C@@H](N)C3)[C@@H]2Oc2ccc(C#N)cc2)C1 (mixture of isomers)	> 100 µM
C[C@]12CCCC[C@H]1C[C@@H](N1CCC[C@@H](N)C1)[C@@H]2Oc1ccc(C#N)cc1	7.7 µM
CO[C@@H]1CC[C@@]2(C)[C@@H](C1)C[C@@H](N1CCC[C@@H](N)C1)[C@@H]2Oc1ccc(C#N)cc1	> 30 µM
N#Cc1ccc(O[C@@H]2C3CCC(=O)[C@@H]3C[C@H]2N2CCC[C@@H](N)C2)cc1 (single isomer, unassigned)	> 30 µM

Hey, quick one: what's IC50 for each of these?
1. C[C@@]12CCC(=O)C[C@@H]1C[C@@H](N1CCC[C@@H](N)C1)[C@@H]2Oc1ccc(C#N)cc1
2. N#Cc1ccc(O[C@@H]2[C@@H]3[C@H](C[C@H]2N2CCC[C@@H](N)C2)[C@@H]2CC(=O)[C@H]3C2)cc1
3. CO[C@H]1CC[C@@]2(C)[C@@H](C1)C[C@@H](N1CCC[C@@H](N)C1)[C@@H]2Oc1ccc(C#N)cc1
4. C[C@]12CC[C@H](C(F)F)C[C@H]1C[C@@H](N1CCC[C@@H](N)C1)[C@@H]2Oc1ccc(C#N)cc1
5. C[C@]12CC[C@@H](O)C[C@H]1C[C@@H](N1CCC[C@@H](N)C1)[C@@H]2Oc1ccc(C#N)cc1
6. C[C@]12CC[C@H](O)C[C@H]1C[C@@H](N1CCC[C@@H](N)C1)[C@@H]2Oc1ccc(C#N)cc1
7. CN(C)C(=O)/C=C1\CC[C@@]2(C)[C@@H](C1)C[C@@H](N1CCC[C@@H](N)C1)[C@@H]2Oc1ccc(C#N)cc1 (mixture of isomers)

Result ::
1: > 30 µM; 2: 17 µM; 3: > 30 µM; 4: 15 µM; 5: > 30 µM; 6: > 30 µM; 7: > 30 µM

###

test: Solubility of the compound in Japanese pharmacopoeia first fluid at pH 1.2; assay type: physicochemical
measured quantity: solubility (µg/mL)
One number for each entry, in µg/mL.

Lab note: measured solubility of C[C@]12CCC(=O)C[C@H]1C[C@@H](N1CCC[C@@H](N)C1)[C@@H]2Oc1ccc(C#N)cc1 was 730

###

experiment: Metabolic stability in mouse liver microsomes assessed as parent compound remaining after 0.5 hrs; type: ADME, microsome; conditions: read-out: Stability
measured quantity: remaining at 0.5 h (%)
Numbers only, in %.

Lab note: measured remaining at 0.5 h of C[C@]12CCC(=O)C[C@H]1C[C@@H](N1CCC[C@@H](N)C1)[C@@H]2Oc1ccc(C#N)cc1 was 96
